molecular target: human apelin receptor (Homo sapiens, UniProt P35414); construct: expressed in transfected cells; test: Determination of agonism on the human apelin receptor by a calcium fluorescence assay (FLIPR); type: cell-based; conditions: HEK293 cells stably transfected with human apelin receptor and Giaq protein, Fluo-4 calcium fluorescence, read-out: EC50 (APJ agonism)
Sequence (P35414 whole entry): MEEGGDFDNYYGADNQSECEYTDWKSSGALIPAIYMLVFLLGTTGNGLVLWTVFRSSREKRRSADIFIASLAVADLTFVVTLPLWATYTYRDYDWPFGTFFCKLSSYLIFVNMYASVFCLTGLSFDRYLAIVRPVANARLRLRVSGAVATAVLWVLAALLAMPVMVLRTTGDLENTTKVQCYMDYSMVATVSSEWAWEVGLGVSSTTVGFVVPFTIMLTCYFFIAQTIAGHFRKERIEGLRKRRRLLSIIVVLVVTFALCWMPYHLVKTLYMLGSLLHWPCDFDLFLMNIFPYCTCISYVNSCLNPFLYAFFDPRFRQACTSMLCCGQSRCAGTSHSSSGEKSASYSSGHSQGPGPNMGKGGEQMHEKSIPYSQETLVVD
Examples of compounds with documented EC50 follow.
Measured metric: EC50

compound=CCC[C@H](CO)NC(=O)c1ccc2c(c1)nc(CC1CCCC1)n2C(CC)CC experimental_result="14.1 µM"
compound=CCC(CC)n1c(Cc2ccccc2)nc2cc(C(=O)N[C@@H](CC(C)C)C(=O)O)ccc21 experimental_result="6.71 µM"
compound=CCC(CC)n1c(Cc2cccs2)nc2cc(C(=O)N[C@@H](CC(C)C)C(=O)NCCCOC(C)C)ccc21 experimental_result="2.57 µM"
compound=CCC(CC)n1c(Cc2cccs2)nc2cc(C(=O)NC3(CO)CCCC3)ccc21 experimental_result="6.22 µM"
compound="CCC(CC)n1c(Cc2cccs2)nc2cc(C(=O)N[C@@H](CC(C)C)C(=O)NCC3CCN(CCc4ccccc4)C3)ccc21 (stereo partly drawn)" experimental_result="0.408 µM"
compound=CCC(CC)n1c(Cc2ccc(C)s2)nc2cc(C(=O)N[C@@H](CC(C)C)C(=O)O)ccc21 experimental_result="33.1 µM"
compound=CCC(CC)n1c(Cc2cccs2)nc2cc(C(=O)N[C@@H](CC(C)C)C(=O)NCc3cccs3)ccc21 experimental_result="3.99 µM"
compound="CC1CCCCC1n1c(Cc2cccs2)nc2cc(C(=O)N[C@@H](CC3CCCCC3)C(=O)O)ccc21 (single isomer, unassigned) [Example 427]" experimental_result="1.32 µM"
compound="CC(C)C[C@@H](CC(=O)O)NC(=O)c1ccc2c(c1)nc(Cc1cccs1)n2C1CCCCC1C (single isomer, unassigned) [Example 439]" experimental_result="0.662 µM"

###

Target: human apelin receptor (Homo sapiens)
Construct: expressed in transfected cells
Assay: Determination of agonism on the human apelin receptor by a calcium fluorescence assay (FLIPR)
Assay type: cell-based
Conditions: HEK293 cells stably transfected with human apelin receptor and Giaq protein, Fluo-4 calcium fluorescence, read-out: EC50 (APJ agonism)
Experimental: Determination of Agonism on the Human Apelin Receptor by a Calcium Fluorescence Assay (FLIPR) The assay is based on the detection of intracellular calcium changes detected by the selective, calcium-chelating dye Fluo-4 (Molecular Probes). A large fluorescence intensity increase is observed upon calcium association with Fluo-4. […] EC-50 values for apelin-13 and the apelin receptor compounds described in this patent were determined by standard algorithms using a specific software package.
pEC50: −log10 of the molar value.
Examples of compounds with documented pEC50 follow.
Measured metric: pEC50

compound="CCC(CC)n1c(Cc2cccs2)nc2cc(C(=O)N[C@@H](CC(C)C)C(=O)NCc3ccc(N(C)C)cc3)ccc21 [Example 266]" experimental_result=5.57
compound="CCC(CC)n1c(Cc2cccs2)nc2cc(C(=O)N[C@@H](CC(C)C)C(=O)NCCCN3CCOCC3)ccc21 [Example 234]" experimental_result=6.46
compound="CCC(CC)n1c(Cc2cccs2)nc2cc(C(=O)NC(C)(CC(C)C)C(=O)O)ccc21 (single isomer, unassigned) [Example 441]" experimental_result=5.82
